ASSAY EXPLANATION: Biodistribution in BxPC3-luc tumor-bearing mice
Type: in vivo, BALB/c nu/nu mice
MEASUREMENT PARAMETERS: female, BALB/c nu/nu, mouse, pancreas, iv, 74 kBq, total radioactivity; 10 min post-injection, i.v.; read-out: Biodistribution, Pancreas
Where a SMILES comes first, the peptide text is derived from it. The star is where a group is joined. DOTA = O=C(O)CN1CCN(CC(=O)O)CCN(CC(=O)*)CCN(CC(=O)O)CC1; AEEA = NCCOCCOCC(=O)O
MEASURED PARAMETER: tissue uptake at 10 min (%ID/g)
Record the value in %ID/g, omitting the unit from your answer.

So, CC[C@H](C)[C@H](NC(=O)COCCOCCNC(=O)CN1CCN(CC(=O)O)CCN(CC(=O)O)CCN(CC(=O)O)CC1)C(=O)N1CCC[C@H]1C(=O)N[C@@H](CC(C)C)C(=O)N1CCC[C@H]1C(=O)N1CCC[C@H]1C(=O)N1CCC[C@H]1C(=O)N[C@@H](CCCNC(=N)N)C(=O)N[C@@H](CCCNC(=N)N)C(=O)N1CCC[C@H]1C(=O)N[C@@H](Cc1ccccc1)C(=O)N[C@@H](Cc1ccccc1)C(=O)N[C@@H](CCCCN)C(=O)O [[^67Ga]27, [^67Ga]Ga-DOTA-EG2-IPLPPPRRPFFK, metal not drawn] ({DOTA-AEEA}-IPLPPPRRPFFK-OH) ? Its tissue uptake at 10 min was 0.89
